# testedOn: FAAH (Mus musculus, UniProt O08914)
# Sequence (O08914 whole entry): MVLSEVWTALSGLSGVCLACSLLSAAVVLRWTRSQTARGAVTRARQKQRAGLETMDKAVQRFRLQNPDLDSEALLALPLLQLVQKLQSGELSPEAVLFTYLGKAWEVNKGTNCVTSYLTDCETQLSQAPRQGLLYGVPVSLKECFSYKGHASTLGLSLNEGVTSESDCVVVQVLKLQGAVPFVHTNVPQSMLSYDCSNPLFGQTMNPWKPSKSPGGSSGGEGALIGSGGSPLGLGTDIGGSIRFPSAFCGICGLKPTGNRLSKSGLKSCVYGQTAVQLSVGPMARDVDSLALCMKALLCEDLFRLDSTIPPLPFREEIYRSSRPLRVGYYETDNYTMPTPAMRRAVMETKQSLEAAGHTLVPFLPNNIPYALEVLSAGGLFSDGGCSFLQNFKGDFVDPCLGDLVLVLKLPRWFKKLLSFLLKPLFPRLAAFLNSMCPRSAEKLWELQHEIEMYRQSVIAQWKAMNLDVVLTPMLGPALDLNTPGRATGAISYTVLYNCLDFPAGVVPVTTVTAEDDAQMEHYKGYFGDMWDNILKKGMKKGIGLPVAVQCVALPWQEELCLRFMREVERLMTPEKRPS
# measurementDescription: Mouse brain proteomes from inhibitor treated mice (oral gavage, sacrificed 4 h after administration), FAAH
# Format: in vivo
# Parameters: mouse brain membrane fraction for mouse assays; from tissue; host or cells: mouse brain (membrane fraction in vitro; brain proteomes of treated C57Bl/6J mice in vivo)
# conditionNotes: 5 mg/kg oral gavage, brain proteome 4 h after administration, read-out: FAAH % inh. 5 mg/kg (mouse)
Reported inhibition at 5 mg/kg values are given for each entry in this list.

Exercise: // inhibition at 5 mg/kg lookup, key: O=C(O)c1nn(C(=O)N2CCC3(CCN(Cc4cc(Cl)ccc4C(F)(F)F)C3)CC2)cc1C(F)(F)F
Solution: 25 to 50%

Exercise: What about this compound? O=C(O)c1ccn(C(=O)N2C[C@H]3C[C@H](OCc4ccc(Oc5ccc(Cl)cc5)cc4)C[C@H]3C2)n1
Solution: 0 to 25%

Exercise: What about this compound? O=C(O)c1ccn(C(=O)N2CCC3(CCCN3Cc3cc(N4CCCC4)cc(C(F)(F)F)c3)CC2)n1
Solution: 0 to 25%

Exercise: What about this compound? O=C(O)c1ccn(C(=O)N2CCN(Cc3ccc(C(F)(F)F)cc3N3CCC(O)CC3)CC2)n1
Solution: 0 to 25%

----------
Reported inhibition at 1 µM values are given for each entry in this list.
# testedOn: FAAH (Homo sapiens, UniProt O00519)
# Sequence (O00519 whole entry): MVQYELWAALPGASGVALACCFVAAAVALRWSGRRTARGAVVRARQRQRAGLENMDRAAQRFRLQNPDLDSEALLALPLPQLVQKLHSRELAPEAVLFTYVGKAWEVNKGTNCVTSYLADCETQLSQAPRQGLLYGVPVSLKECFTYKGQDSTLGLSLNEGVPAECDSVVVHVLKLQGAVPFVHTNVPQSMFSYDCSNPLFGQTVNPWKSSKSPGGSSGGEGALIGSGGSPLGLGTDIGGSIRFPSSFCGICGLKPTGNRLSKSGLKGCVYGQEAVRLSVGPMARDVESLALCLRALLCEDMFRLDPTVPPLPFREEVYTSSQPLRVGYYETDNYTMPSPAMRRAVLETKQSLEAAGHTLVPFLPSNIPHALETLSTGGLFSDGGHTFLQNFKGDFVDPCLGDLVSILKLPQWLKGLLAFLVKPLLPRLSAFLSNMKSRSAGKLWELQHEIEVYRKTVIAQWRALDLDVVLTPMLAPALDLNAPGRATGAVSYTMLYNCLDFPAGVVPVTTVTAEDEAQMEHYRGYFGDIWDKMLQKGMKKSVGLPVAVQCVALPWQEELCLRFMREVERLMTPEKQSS
# measurementDescription: In vitro competitive activity-based protein profiling, FAAH, human
# conditionNotes: read-out: FAAH % inh. 1 μM (human)

The examples below pair each entry with its known result.
1) O=C(O)c1ccn(C(=O)N2CCC3(CCN(Cc4cc(Cl)cc(N5CCCC5)c4)C3)CC2)n1 [Example 44] = 0 to 25%
2) O=C(O)c1ccn(C(=O)N2CCN(Cc3ccc(C(F)(F)F)cc3N3CCN4CCC[C@@H]4C3)CC2)n1 [Example 48] = 0 to 25%

Exercise: // inhibition at 1 µM lookup, key: CN(Cc1cc(Cl)ccc1C(F)(F)F)C1CCN(C(=O)n2ccc(C(=O)O)n2)CC1 [Example 81]
Solution: 50 to 75%

Exercise: What about this compound? O=C(O)c1ccn(C(=O)N2CCN(Cc3cccc(Oc4ccncn4)c3)CC2)n1 [Example 63]
Solution: 50 to 75%

Exercise: What about this compound? O=C(O)c1ccn(C(=O)N2CCN(Cc3cccc(Oc4ccnnc4)c3)CC2)n1 [Example 177]
Solution: 0 to 25%

Exercise: What about this compound? O=C(O)c1nn(C(=O)N2CCC3(CCN(Cc4cc(Cl)ccc4C(F)(F)F)C3)CC2)cc1C(F)(F)F [Example 148]
Solution: > 75%

Exercise: What about this compound? O=C(O)c1ccn(C(=O)N2CCC3(CCN(Cc4cc(Cl)ccc4C(F)(F)F)C3)CC2)n1 [Example 43]
Solution: 50 to 75%

Exercise: What about this compound? O=C(O)c1ccn(C(=O)N2CCN(Cc3cccc(Oc4ncccn4)c3)CC2)n1 [Example 62]
Solution: 0 to 25%

Exercise: What about this compound? Cc1cn(C(=O)N2CCC3(CC2)CN(Cc2ccc(C(F)(F)F)cc2N2CCCC2)C3)nc1C(=O)O [Example 135]
Solution: 0 to 25%

----------
# testedOn: FAAH (Homo sapiens, UniProt O00519)
# measurementDescription: In vitro competitive activity-based protein profiling, FAAH, human
# conditionNotes: read-out: FAAH % inh. 1 μM (human)
Reported inhibition at 1 µM values are given for each entry in this list.

The examples below pair each entry with its known result.
1. O=C(O)c1ccn(C(=O)N2CCC3(CCN(Cc4cccc(Oc5ccc(Cl)cc5)c4)C3)CC2)n1 [Example 210] = > 75%
2. O=C(O)c1ccn(C(=O)N2CCN(Cc3cc(N4CCCC4)cc(C(F)(F)F)c3)CC2)n1 [Example 87] = 0 to 25%
3. Cc1ccc(CN2CCC3(CCN(C(=O)n4ccc(C(=O)O)n4)CC3)C2)cc1Cl [Example 154] = 0 to 25%

Exercise: // inhibition at 1 µM lookup, key: C[C@@H]1CC[C@H](C)N1c1cc(C(F)(F)F)ccc1CN1CCN(C(=O)n2ccc(C(=O)O)n2)CC1 [Example 94]
Solution: 0 to 25%

Exercise: What about this compound? NC(=O)c1ccn(C(=O)N2CC3CN(Cc4ccc(Cl)cc4)CC3C2)n1 (centres unmarked) [Example 203]
Solution: > 75%

Exercise: What about this compound? O=C(O)c1ccn(C(=O)N2CCN(Cc3cccc(Oc4ccc(Cl)cc4)c3)CC2)n1 [Example 98]
Solution: > 75%

Exercise: What about this compound? O=C(O)c1ccn(C(=O)N2CC3CN(Cc4cccc(C(F)(F)F)c4)CC3C2)n1 (centres unmarked) [Example 122]
Solution: 0 to 25%

Exercise: What about this compound? O=C(O)c1nn(C(=O)N2CC3CN(Cc4cc(Cl)ccc4Cl)CC3C2)cc1Cl (centres unmarked) [Example 136]
Solution: > 75%

Exercise: What about this compound? O=C(O)c1nn(C(=O)N2CCC3(CC2)CN(Cc2cc(Cl)ccc2C(F)(F)F)C3)cc1Cl [Example 134]
Solution: > 75%

Exercise: What about this compound? CN(Cc1cc(Cl)ccc1C(F)(F)F)C1CCN(C(=O)n2cc(Cl)c(C(=O)O)n2)CC1 [Example 112]
Solution: > 75%

Exercise: What about this compound? Cc1cc(CN2CCC3(CCN(C(=O)n4ccc(C(=O)O)n4)CC3)C2)ccc1C(F)(F)F [Example 155]
Solution: 0 to 25%

Exercise: What about this compound? CN(Cc1cccc(Cl)c1N1CCCC1)C1(C)CCN(C(=O)n2ccc(C(=O)O)n2)CC1 [Example 47]
Solution: 0 to 25%
